- ASSAYED_TARGET: Type II NADH dehydrogenase (NDH-2, NdhC) (Staphylococcus aureus)
- Sequence (Q2FZV7 1-402): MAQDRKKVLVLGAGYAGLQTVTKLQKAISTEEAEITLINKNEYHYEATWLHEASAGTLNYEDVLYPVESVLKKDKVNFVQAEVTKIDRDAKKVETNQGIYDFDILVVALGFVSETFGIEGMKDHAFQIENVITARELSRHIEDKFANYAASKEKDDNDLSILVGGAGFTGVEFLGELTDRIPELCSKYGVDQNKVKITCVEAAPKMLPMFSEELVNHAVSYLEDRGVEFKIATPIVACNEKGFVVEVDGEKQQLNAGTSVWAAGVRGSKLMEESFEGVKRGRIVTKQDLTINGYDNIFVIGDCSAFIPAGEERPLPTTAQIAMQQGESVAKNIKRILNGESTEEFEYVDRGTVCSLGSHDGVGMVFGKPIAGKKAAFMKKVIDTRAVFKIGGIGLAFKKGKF
MEASURED_QUANTITY: IC50 (µM)
Field: numeric (µM). Do not append units.

Exercise: Look up IC50 with Type II NADH dehydrogenase (NDH-2, NdhC) (Staphylococcus aureus) for this molecule: CCCCCCCc1cc(O)c2ccccc2[n+]1[O-] [HQNO, 2-heptyl-4-hydroxyquinoline-N-oxide]
Solution: 9
